Overview of reported AST across a group of compounds:
- Species on record: Rattus norvegicus
- measurement.protocol: Open TG-GATES - Regimen: Single
- Assay type: toxicity, organism-based, Sprague-Dawley
- Design: regimen Single, gender Male, age 6 weeks
- test.settings: in vivo, po, 100 mg/kg, 6 h, tissue Plasma, route gavage, dose level Low
The reply should be a number in IU/L, with the unit left off.

Example compounds with recorded AST:
C[C@H](CS)C(=O)N1CCC[C@H]1C(=O)O [CAPTOPRIL] : 55.6
CCc1cc(C(N)=S)ccn1 [ETHIONAMIDE] : 77.4
O=C(O)c1cn(C2CC2)c2cc(N3CCNCC3)c(F)cc2c1=O [CIPROFLOXACIN] : 70.4

q: Please report the recorded AST for Clc1ccccc1CN1CCc2sccc2C1 [TICLOPIDINE] .
a: 68.4

q: Please report the recorded AST for O=C(O)c1cc(/N=N/c2ccc(S(=O)(=O)Nc3ccccn3)cc2)ccc1O [SULFASALAZINE] .
a: 68.4

Reference source: ChEMBL document CHEMBL3885861
